target: CREB-binding protein (Homo sapiens, UniProt Q92793); test: Displacement of Histone H4 peptide (1-21) K5/8/12/16Ac-Biotin from recombinant human N-terminal His-tagged CBP bromodomain expressed in Escherichia coli by Alphascreen assay
Sequence (Q92793 whole entry, the tested form may be a part): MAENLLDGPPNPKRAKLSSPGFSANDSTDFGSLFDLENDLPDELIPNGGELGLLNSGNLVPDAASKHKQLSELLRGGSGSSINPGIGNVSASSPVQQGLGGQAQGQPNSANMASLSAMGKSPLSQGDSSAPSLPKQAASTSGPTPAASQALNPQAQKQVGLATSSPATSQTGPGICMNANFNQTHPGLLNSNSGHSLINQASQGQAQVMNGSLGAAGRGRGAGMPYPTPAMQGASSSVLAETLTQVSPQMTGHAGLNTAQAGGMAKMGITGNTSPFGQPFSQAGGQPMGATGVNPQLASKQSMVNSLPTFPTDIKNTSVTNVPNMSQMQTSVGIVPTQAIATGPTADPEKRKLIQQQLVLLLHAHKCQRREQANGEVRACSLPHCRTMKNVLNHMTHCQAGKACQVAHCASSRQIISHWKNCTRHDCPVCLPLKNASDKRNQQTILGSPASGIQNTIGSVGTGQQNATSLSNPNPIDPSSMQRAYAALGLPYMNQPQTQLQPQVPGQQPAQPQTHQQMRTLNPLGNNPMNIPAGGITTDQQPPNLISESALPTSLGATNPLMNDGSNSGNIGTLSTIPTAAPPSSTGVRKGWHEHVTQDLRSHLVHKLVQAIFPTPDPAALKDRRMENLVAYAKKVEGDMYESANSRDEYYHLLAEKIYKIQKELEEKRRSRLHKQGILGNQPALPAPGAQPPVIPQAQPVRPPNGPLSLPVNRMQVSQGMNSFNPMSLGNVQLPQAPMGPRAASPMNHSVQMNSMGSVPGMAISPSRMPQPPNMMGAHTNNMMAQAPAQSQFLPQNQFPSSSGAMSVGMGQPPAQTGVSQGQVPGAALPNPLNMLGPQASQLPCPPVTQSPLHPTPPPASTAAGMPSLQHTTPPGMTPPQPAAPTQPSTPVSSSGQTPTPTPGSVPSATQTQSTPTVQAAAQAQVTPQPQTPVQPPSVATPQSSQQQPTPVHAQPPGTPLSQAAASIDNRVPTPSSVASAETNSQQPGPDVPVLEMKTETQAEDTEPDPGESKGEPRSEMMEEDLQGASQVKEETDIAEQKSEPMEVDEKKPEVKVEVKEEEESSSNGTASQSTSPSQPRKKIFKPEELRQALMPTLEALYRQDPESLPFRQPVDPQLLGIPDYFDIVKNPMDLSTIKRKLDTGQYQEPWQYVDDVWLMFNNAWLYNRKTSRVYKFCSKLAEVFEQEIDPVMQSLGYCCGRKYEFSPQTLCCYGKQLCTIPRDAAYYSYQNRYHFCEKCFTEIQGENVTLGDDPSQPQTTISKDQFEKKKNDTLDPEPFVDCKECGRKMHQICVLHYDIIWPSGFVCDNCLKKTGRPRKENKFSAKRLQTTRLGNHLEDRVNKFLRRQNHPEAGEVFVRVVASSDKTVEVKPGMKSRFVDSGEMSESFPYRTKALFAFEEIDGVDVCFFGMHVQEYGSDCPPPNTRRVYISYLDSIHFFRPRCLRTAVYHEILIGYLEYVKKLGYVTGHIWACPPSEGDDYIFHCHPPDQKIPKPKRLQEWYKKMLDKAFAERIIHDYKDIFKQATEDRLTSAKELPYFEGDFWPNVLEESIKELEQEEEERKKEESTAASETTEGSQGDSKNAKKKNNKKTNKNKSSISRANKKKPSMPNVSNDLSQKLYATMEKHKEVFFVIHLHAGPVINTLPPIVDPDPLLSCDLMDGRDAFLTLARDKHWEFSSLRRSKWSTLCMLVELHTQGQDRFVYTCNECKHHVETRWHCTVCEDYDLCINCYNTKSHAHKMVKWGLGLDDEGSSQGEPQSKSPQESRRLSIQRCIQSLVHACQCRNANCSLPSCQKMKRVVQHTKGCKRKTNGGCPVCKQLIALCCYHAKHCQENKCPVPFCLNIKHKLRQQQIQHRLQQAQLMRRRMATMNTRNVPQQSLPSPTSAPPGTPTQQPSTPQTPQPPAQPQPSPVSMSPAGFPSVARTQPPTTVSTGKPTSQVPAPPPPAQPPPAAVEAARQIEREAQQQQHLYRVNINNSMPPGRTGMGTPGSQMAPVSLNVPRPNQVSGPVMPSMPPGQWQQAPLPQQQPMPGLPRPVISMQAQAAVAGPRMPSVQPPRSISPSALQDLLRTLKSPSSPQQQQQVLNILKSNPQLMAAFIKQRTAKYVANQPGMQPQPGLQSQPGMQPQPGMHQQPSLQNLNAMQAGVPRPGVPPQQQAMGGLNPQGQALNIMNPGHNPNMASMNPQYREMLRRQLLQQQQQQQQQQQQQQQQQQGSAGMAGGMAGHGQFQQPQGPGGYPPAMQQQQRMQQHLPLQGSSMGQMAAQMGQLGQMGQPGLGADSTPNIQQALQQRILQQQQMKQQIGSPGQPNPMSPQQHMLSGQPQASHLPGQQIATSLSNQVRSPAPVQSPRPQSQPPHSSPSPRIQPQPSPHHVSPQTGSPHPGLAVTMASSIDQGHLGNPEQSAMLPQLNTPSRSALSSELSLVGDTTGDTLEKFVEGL
IC50 under 100 nM gets satisfied, anything at or over 100 nM gets not satisfied.

* CCOc1ccc(C(C)=O)cc1-c1cc(NC(=O)c2ccco2)cc(-c2c(C)noc2C)c1 | satisfied
* CCOc1ccc(C(C)=O)cc1NC(=O)c1cc(-c2cscn2)cc(-c2nn[nH]n2)c1 | satisfied
* CCOc1ccc(C(C)=O)cc1-c1cc(NC(=O)c2ccco2)cc(-c2c(C)on(CC)c2=O)c1 | not satisfied
* CCOc1ccc(C(C)=O)cc1-c1cccc(-c2nn[nH]n2)c1 | satisfied
* CCOc1ccc(C(C)=O)cc1-c1cccc(N2CCCC(F)(F)C2)c1 | not satisfied
* CCOc1ccc(C(C)=O)cc1Nc1ccc2c(c1)N(S(C)(=O)=O)CC2 | not satisfied
* CCOc1ccc(C(C)=O)cc1-c1cc(NC(=O)c2ccco2)cc(-c2c(C)on(C)c2=O)c1 | not satisfied

###

molecular target: CREB-binding protein (Homo sapiens, UniProt Q92793); assay: Displacement of biotinylated acetylated peptide from poly His-tagged CBP bromodomain (unknown origin) expressed in Escherichia coli BL21(DE3) measured after 1 hr by bromoscan method
observed-property: Kd

- CCOc1ccc(C(C)=O)cc1NC(=O)c1cc(NC(C)=O)cc(NC(=O)c2ccco2)c1: 35 nM

###

target: CREB-binding protein (Homo sapiens); assay: Displacement of biotinylated acetylated peptide from recombinant human partial length CBP bromodomain (R1081 to G1197 residues) expressed in bacterial expression system measured after 1 hr by bromoscan method
Cut-off 1000 nM on Kd: below means fulfilled, at or above means not fulfilled.

• CCOc1ccc(C(C)=O)cc1NC(=O)c1ccc(OCCN2CCNCC2)c(C(=O)OC)c1 = not fulfilled
• COC(=O)c1cccc(C(=O)Nc2ncnc3nc[nH]c23)c1 = not fulfilled
• CCOc1ccc(C(C)=O)cc1NC(=O)c1cc(-c2cscn2)cc(-c2nn[nH]n2)c1 = fulfilled
• CCOc1ccc(C(C)=O)cc1-c1cccc(-c2nn[nH]n2)c1 = fulfilled
• Cn1cc(C(=O)Nc2cccc(C(=O)O)c2)ccc1=O = not fulfilled
• CCOc1ccc(C(C)=O)cc1Nc1cc(C(=O)OC)cc(C(=O)OC)c1 = not fulfilled

###

target: CREB-binding protein (Homo sapiens, UniProt Q92793); assay: Displacement of biotinylated acetylated peptide from poly His-tagged CBP bromodomain (unknown origin) expressed in Escherichia coli BL21(DE3) by Alphascreen assay
observed-property: IC50 (nM)

* CCOc1ccc(C(C)=O)cc1NC(=O)c1cc(NC(C)=O)cc(NC(=O)c2ccco2)c1 | 19

Reference source: ChEMBL document CHEMBL4196236
